Values were extracted from patent US20140357844A1.

assay-target: T1, monovalent human Trop2-ECD antigen (human, UniProt P09758 27-274)
T1 construct: also called human Trop2-ECD (Extracellular Domain)
T1 sequence: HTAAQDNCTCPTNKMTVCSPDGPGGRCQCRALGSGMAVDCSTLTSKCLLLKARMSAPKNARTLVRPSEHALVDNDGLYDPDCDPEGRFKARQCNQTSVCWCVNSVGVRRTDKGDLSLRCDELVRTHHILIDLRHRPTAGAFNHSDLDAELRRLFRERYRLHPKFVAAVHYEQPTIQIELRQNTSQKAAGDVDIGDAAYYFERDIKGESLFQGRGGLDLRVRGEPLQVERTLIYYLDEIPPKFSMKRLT
run-description: SPR (ProteOn XPR36), amine-coupled Fab, monovalent human Trop2-ECD as analyte, 25 C;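 note: GLC sensor chip, 3 min association then 15 min buffer dissociation, kinetics fit with a 1:1 Langmuir model, buffer of 10 mM sodium phosphate with 150 mM NaCl and 0.05% Tween-20 at pH 7.4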
quantity-name: log10 t1/2 (log10 of the value in s)
Lab note - t1/2 converted to log10 from values in s.

1) h7E6_SVG22 Fab (Fab, V domains shown, also called DA (h7E6_SVG22)) VH: QVQLQESGPGLVKPSETLSLTCTVSGGSISSYGVHWIRQPPGKGLEWIGVIWTSGVTDYNSALMGRVTISVDTSKNQFSLKLSSVTAADTAVYYCARDADYDRYTMDYWGQGTLVTVSS VL: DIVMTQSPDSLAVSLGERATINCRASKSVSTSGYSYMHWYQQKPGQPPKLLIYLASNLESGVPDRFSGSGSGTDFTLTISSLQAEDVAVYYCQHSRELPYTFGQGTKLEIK
1.71

**Q:** # input binder: h7E6_SVG20 Fab (Fab, V domains shown, also called DK (h7E6_SVG20)) VH: QVQLQESGPGLVKPSETLSLTCTVSGGSISSYGVHWIRQPPGKGLEWIGVIWTSGVTDYNSALMGRVTISVDTSKNQFSLKLSSVTAADTAVYYCARDKDYDRYTMDYWGQGTLVTVSS VL: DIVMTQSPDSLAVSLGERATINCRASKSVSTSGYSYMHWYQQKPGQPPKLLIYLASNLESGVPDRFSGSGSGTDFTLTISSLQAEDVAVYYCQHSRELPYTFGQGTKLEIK ; wanted: its log10 t1/2
**A:** 1.72

**Q:** Here is the next binder: h7E6_SVG19 Fab (Fab, V domains shown, also called DS (h7E6_SVG19)) VH: QVQLQESGPGLVKPSETLSLTCTVSGGSISSYGVHWIRQPPGKGLEWIGVIWTSGVTDYNSALMGRVTISVDTSKNQFSLKLSSVTAADTAVYYCARDSDYDRYTMDYWGQGTLVTVSS VL: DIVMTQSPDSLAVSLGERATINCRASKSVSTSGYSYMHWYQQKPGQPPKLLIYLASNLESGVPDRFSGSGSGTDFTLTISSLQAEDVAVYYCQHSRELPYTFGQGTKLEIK
**A:** 1.19

**Q:** Check h7E6_SVG Fab (Fab, V domains shown, also called DG (h7E6_SVG)) VH: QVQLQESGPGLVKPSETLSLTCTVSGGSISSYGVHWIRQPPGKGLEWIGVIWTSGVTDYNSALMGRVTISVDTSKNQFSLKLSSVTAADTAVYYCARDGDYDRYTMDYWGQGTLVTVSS VL: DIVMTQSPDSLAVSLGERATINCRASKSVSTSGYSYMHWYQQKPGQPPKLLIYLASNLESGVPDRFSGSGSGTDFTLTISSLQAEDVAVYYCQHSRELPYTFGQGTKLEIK too.
**A:** 3.01

**Q:** What about this binder? h7E6_SVG28 Fab (Fab, V domains shown, also called DL (h7E6_SVG28)) VH: QVQLQESGPGLVKPSETLSLTCTVSGGSISSYGVHWIRQPPGKGLEWIGVIWTSGVTDYNSALMGRVTISVDTSKNQFSLKLSSVTAADTAVYYCARDLDYDRYTMDYWGQGTLVTVSS VL: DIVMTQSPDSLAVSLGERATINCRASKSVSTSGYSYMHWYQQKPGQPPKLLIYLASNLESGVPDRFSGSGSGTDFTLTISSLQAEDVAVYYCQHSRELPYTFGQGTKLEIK
**A:** 1.64

**Q:** Quick one: h7E6_SVG30 Fab (Fab, V domains shown, also called DE (h7E6_SVG30)) VH: QVQLQESGPGLVKPSETLSLTCTVSGGSISSYGVHWIRQPPGKGLEWIGVIWTSGVTDYNSALMGRVTISVDTSKNQFSLKLSSVTAADTAVYYCARDEDYDRYTMDYWGQGTLVTVSS VL: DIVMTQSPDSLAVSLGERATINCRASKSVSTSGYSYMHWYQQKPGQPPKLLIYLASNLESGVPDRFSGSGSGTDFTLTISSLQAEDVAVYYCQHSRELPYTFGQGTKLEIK
**A:** 1.03
